MEASURED_TARGET: Coagulation factor XI (Homo sapiens)
ASSAY_DETAILS: FXIa protease inhibitors in compound pools, primary screen, biochemical, 10-compound mixtures (AID 680);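 also: each value is inhibition by a whole ten-compound pool holding the compound; 0% = enzyme with no mixture and 100% = wells lacking enzyme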
CONDITIONS: purified FXIa, fluorogenic substrate, pooled mixtures; at 5 µM
The campaign covered roughly 62,000 compounds. About 120 (0.19%) were called active. Rule as the data show it: active = inhibition above about 20% (passing the limit was not always enough); inactive = the rest. Many of the other results were omitted from the sample, so actives are more common in it than they were.
Write down one outcome, taken from class 1 (active), class 0 (inactive)

Prompt: Per the assay record, what outcome was assigned to `CCn1cc(C(=O)N2CCN(C3CCCCC3)CC2)c2cc(OC)c(OC)cc2c1=O` ?
Response: class 0

Prompt: And what about the compound `C[N+](C)(C)CCOP(=O)([O-])OC[C@H](O)CO` ?
Response: class 0

Prompt: And what about the compound `O=C(Cn1nnc(-c2ccc(CN3CCOCC3)cc2)n1)NC1CCCCC1` ?
Response: class 0

Prompt: And what about the compound Cc1cc(NC(=O)CN2CCCCC2C)nc2c1c(=O)oc1ccccc12 (stereo unspecified) ?
Response: class 0

Prompt: And what about the compound `COc1cccc2c(C)c(C(=O)O)[nH]c12` ?
Response: class 0

Prompt: And what about the compound `COc1ccc(CCNC(=O)CSc2nnc(CNC(=O)c3cccs3)o2)cc1OC` ?
Response: class 0

Prompt: And what about the compound `CCOC(=O)N1CCN(C(=O)CSc2nnc(-c3c[nH]c4ccccc34)n2CCOC)CC1` ?
Response: class 0

Prompt: And what about the compound CCC(C)Sc1nnc(-c2c[nH]c3ccccc23)n1CCOC (stereo unspecified) ?
Response: class 0

Prompt: And what about the compound `CCc1c(C)nc2ncnn2c1N1CCC(C(=O)NCc2ccc3c(c2)OCO3)CC1` ?
Response: class 0

Prompt: And what about the compound `CCCCN(C)C(=O)C1CCN(Cc2ccccn2)CC1` ?
Response: class 0

Prompt: And what about the compound `CCn1c(SCCC(C)C)nnc1-c1c[nH]c2ccccc12` ?
Response: class 1

---

Give inhibition for every item shown.
MEASURED_TARGET: Coagulation factor XI (Homo sapiens) (UniProt P03951)
Sequence (P03951 19-387 limits assumed): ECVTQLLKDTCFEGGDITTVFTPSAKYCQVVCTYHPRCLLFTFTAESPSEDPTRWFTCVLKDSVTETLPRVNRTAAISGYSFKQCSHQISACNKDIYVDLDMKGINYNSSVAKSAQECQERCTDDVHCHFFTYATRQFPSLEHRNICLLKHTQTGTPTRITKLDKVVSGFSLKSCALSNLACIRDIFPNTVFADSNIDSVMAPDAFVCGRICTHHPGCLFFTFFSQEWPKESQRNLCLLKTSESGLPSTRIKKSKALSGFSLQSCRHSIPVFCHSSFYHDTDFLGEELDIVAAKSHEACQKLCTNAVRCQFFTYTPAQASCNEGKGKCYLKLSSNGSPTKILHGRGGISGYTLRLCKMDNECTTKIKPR
Sequence (P03951 388-625 limits assumed): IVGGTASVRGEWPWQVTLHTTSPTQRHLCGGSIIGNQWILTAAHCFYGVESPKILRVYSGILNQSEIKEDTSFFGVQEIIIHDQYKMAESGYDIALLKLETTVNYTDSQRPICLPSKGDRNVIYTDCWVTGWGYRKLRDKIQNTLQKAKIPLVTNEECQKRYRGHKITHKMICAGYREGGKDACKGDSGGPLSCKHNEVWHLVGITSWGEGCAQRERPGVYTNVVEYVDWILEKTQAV
ASSAY_DETAILS: FXIa protease inhibitors in compound pools, primary screen, biochemical, 10-compound mixtures (AID 680)
CONDITIONS: purified FXIa, fluorogenic substrate, pooled mixtures; at 5 µM; active compounds read high
About 120 (0.19%) of roughly 62,000 compounds were called active. For the sample, actives were picked, then their nearest neighbours and some compounds at random.
Quick note: give the figure in %, leave out the unit.

Prompt: Returns the measured inhibition for the input molecule. Input: `CC(C)CNC(=O)c1cc(-c2ccc(Br)cc2)on1`
Response: 5.53

Prompt: And what about the molecule `O=C(c1cccc(C(=O)N2CCN(c3ccc(F)cc3)CC2)c1)N1CCN(c2ccc(F)cc2)CC1` ?
Response: 0.53

Prompt: And what about the molecule O=C1OC(NC(=O)c2ccccc2)C(N2CCOCC2)=C1Cl (stereo unspecified) ?
Response: 1.5

Prompt: And what about the molecule Cc1ccc(S(=O)(=O)C(C#N)c2nc3ccccc3nc2N2CCCC2)cc1C (stereo unspecified) ?
Response: -0.215

Prompt: And what about the molecule `O=C(O)c1ccc(F)c(S(=O)(=O)Nc2ccccc2)c1` ?
Response: 7.12

Prompt: And what about the molecule `N#CCCn1ncc2ccccc21` ?
Response: -0.96

Prompt: And what about the molecule `CCc1c(C)n([O-])c2c([n+]1=O)CCCCC2` ?
Response: 5.37

Prompt: And what about the molecule `CCc1ccccc1N(CC(=O)NCCSCc1ccco1)S(C)(=O)=O` ?
Response: -9.75

Prompt: And what about the molecule `O=C(CSc1nc2c(cnn2-c2ccc(F)cc2)c(=O)[nH]1)N1CCCCCC1` ?
Response: 2.05

Prompt: And what about the molecule `Cn1c(-c2ccc(F)cc2)cnc1SCC(=O)NCc1ccco1` ?
Response: -1.83

Prompt: And what about the molecule `COc1ccccc1CNC(=O)CCCn1c(=O)c2ccccc2n(CC(=O)NC2CCCC2)c1=O` ?
Response: 0.555

---

MEASURED_TARGET: Coagulation factor XI (Homo sapiens) (UniProt P03951)
ASSAY_DETAILS: FXIa protease inhibitors in compound pools, primary screen, biochemical, 10-compound mixtures (AID 680);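 also: each value is inhibition by a whole ten-compound pool holding the compound; 0% = enzyme with no mixture and 100% = wells lacking enzyme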
CONDITIONS: purified FXIa, fluorogenic substrate, pooled mixtures; at 5 µM
Screen size: about 62,000 compounds; about 120 (0.19%) were called active. Cut-off read from the data, not from the text of the source: active = inhibition above about 20% (passing the limit was not always enough); inactive = the rest. This excerpt belongs to a sample that is enriched for actives.
Write down one outcome, taken from active, inactive

Prompt: Per the assay record, what outcome was assigned to `CCNC(=O)CCc1nc(-c2ccc(C(C)(C)C)cc2)no1` ?
Response: inactive

Prompt: And what about the compound `CCN(CC)CCCNC(=O)c1cc(-c2cccc(Cl)c2)on1` ?
Response: inactive

Prompt: And what about the compound O=C(Nc1nnc(CCc2ccccc2)s1)C1CCCO1 (stereo not given) ?
Response: active

Prompt: And what about the compound `O=C(CSc1nnc(-c2ccncc2)n1C1CCCCC1)Nc1ccccc1` ?
Response: inactive

Prompt: And what about the compound `O=C(c1ccccc1)c1ccc(OC(=O)N2CCCC2)cc1` ?
Response: inactive

Prompt: And what about the compound `COc1ccc(-c2c(C)nn3c(N4CCC(C(=O)N5CCCCC5)CC4)cc(C)nc23)cc1OC` ?
Response: inactive

Prompt: And what about the compound `O=C(CSc1nnc(-c2cccs2)n1-c1ccccc1)N1CCN(C(=O)c2ccco2)CC1` ?
Response: inactive

Prompt: And what about the compound `COc1cccc(NC(=O)CN(C)S(=O)(=O)c2ccc(C)cc2)c1` ?
Response: inactive

Prompt: And what about the compound O=C(Nc1cccc(-c2nnc(-c3ccccc3)o2)c1)C1CCCO1 (stereo not given) ?
Response: inactive

Prompt: And what about the compound `O=C(Nc1ccc(Cl)cn1)c1cnn2cccnc12` ?
Response: inactive

Prompt: And what about the compound `O=C(Nc1ccn(Cc2ccc(F)cc2)n1)c1ccncc1` ?
Response: inactive

Prompt: And what about the compound COc1ccc(S(=O)(=O)N2CCCC(C(=O)N3CCN(C)CC3)C2)cc1C (stereo not given) ?
Response: inactive

Prompt: And what about the compound `Cc1cc(C(=O)N2CCN(c3ccccn3)CC2)c(C)o1` ?
Response: inactive

Prompt: And what about the compound COc1ccc(-c2nnc(SC(C)C#N)o2)cc1 (stereo not given) ?
Response: inactive

Prompt: And what about the compound `CC1CCN(c2nc3c(c(=O)[nH]c(=O)n3C)n2CCCc2ccccc2)CC1` ?
Response: inactive

---

MEASURED_TARGET: Coagulation factor XI (Homo sapiens)
ASSAY_DETAILS: FXIa protease inhibitors in compound pools, primary screen, biochemical, 10-compound mixtures (AID 680);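 also: each value is inhibition by a whole ten-compound pool holding the compound; 0% = enzyme with no mixture and 100% = wells lacking enzyme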
CONDITIONS: purified FXIa, fluorogenic substrate, pooled mixtures; at 5 µM; active compounds read high
Among all 62,000 compounds or so, about 120 (0.19%) were called active. The sample holds actives, similar compounds and a random draw of the others, so the mix is not that of the screen.
MEASURED_PROPERTY: inhibition (%)
Quick note: give the figure in %, leave out the unit.

Prompt: Request body: readout inhibition, system Coagulation factor XI (Homo sapiens), query `CN(Cc1ccccc1)Cc1ccccc1F` . Return the value.
Response: 11

Prompt: And what about the compound `Cc1cccc(NC(=O)CSC(N)=O)c1C` ?
Response: 4.87

Prompt: And what about the compound `O=C(Nc1ccccc1)N(Cc1cccnc1)Cc1ccco1` ?
Response: 9.03

Prompt: And what about the compound `CCOC(=O)c1c(C)nc(-c2ccccc2)nc1NC(=O)C(C)C` ?
Response: 5.54

Prompt: And what about the compound CCOC(=O)C(CC)Sc1ncnc2c1nnn2-c1ccc(F)cc1 (stereo unspecified) ?
Response: 14

Prompt: And what about the compound `COc1cccc2c(=O)n(CC(=O)N3CCCCCC3)ccc12` ?
Response: -15.3

Prompt: And what about the compound `CCOc1ccccc1NC(=O)C1CCN(S(=O)(=O)c2c(C)nn(C)c2C)CC1` ?
Response: 9

Prompt: And what about the compound `CC(C)(C)n1c(=O)[nH]c2c(c1=O)CCC2` ?
Response: 5.49

Prompt: And what about the compound `CCOC(=O)c1ccc(-n2c(C)nc3c(cnn3-c3ccccc3C)c2=O)cc1` ?
Response: -0.685

Prompt: And what about the compound `Cc1ccccc1-c1nc(CS(=O)(=O)CC(=O)N2CCc3ccccc3C2)c(C)o1` ?
Response: 11.3

Prompt: And what about the compound COC(=O)[C@H](Cc1ccccc1)NC(=O)N1CC(C)OC(C)C1 (stereo partly specified) ?
Response: -17.5

---

MEASURED_TARGET: Coagulation factor XI (Homo sapiens) (UniProt P03951)
ASSAY_DETAILS: FXIa protease inhibitors in compound pools, primary screen, biochemical, 10-compound mixtures (AID 680);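 also: each value is inhibition by a whole ten-compound pool holding the compound; 0% = enzyme with no mixture and 100% = wells lacking enzyme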
CONDITIONS: purified FXIa, fluorogenic substrate, pooled mixtures; at 5 µM; active compounds read high
The whole screen tested about 62,000 compounds, of which about 120 (0.19%) were called active. What follows is part of a selection rich in actives, with near analogues and random picks from the rest.
MEASURED_PROPERTY: inhibition (%)
Quick note: give the figure in %, leave out the unit.

Prompt: Returns the measured inhibition for the input compound. Input: `COc1cc2cc(CN(CCN3CCCC3)C(=O)Nc3ccccc3Cl)c(=O)[nH]c2cc1OC`
Response: 2.35

Prompt: And what about the compound `Cc1sc2c(c1C)c(=O)n(-c1ccccc1)c1nncn21` ?
Response: 0.14

Prompt: And what about the compound O=C(NCCCN1CCN(c2ccccc2F)CC1)C1CCC(=O)N1C1CCCCC1 (configuration not stated) ?
Response: 0.475

Prompt: And what about the compound `O=C(c1ccccc1)c1ccc2nc(N3CCCCC3)c3nncn3c2c1` ?
Response: 5.07

Prompt: And what about the compound CC(C)(C)NC(=O)C(c1ccncc1)N(C(=O)CNC(=O)c1ccco1)c1ccc2c(c1)OCO2 (configuration not stated) ?
Response: 8.32

Prompt: And what about the compound COc1ccc(CCNC(=O)C2CCCN(Cc3nc(-c4cccc(Cl)c4)oc3C)C2)cc1OC (configuration not stated) ?
Response: 10.1

Prompt: And what about the compound `CCC(CC)C(=O)Nc1cc(C(=O)OC)cc(C(=O)OC)c1` ?
Response: -1.44

Prompt: And what about the compound `CC12CN(Cc3ccccc3)CC(C)(CN(Cc3ccccc3)C1)C2=NO` ?
Response: -5.8

Prompt: And what about the compound `COc1ccc(Cc2nnc(NS(=O)(=O)Cc3ccccc3)s2)cc1` ?
Response: 10.4

Prompt: And what about the compound `N#CC(C(N)=O)=C1CCC2(CC1)OCCCCO2` ?
Response: 4.44

Prompt: And what about the compound CCOC(=O)C(C(=O)OCC)C(C#N)c1ccccc1 (configuration not stated) ?
Response: 3.99

Prompt: And what about the compound CCOC(=O)Cn1c(=O)oc2cc(S(=O)(=O)NCC3CCCO3)ccc21 (configuration not stated) ?
Response: 5.99

Prompt: And what about the compound `COC(=O)CN(c1cccc(C(C)=O)c1)S(C)(=O)=O` ?
Response: 2.59

Prompt: And what about the compound `Cc1cccc2c1N(CC(=O)OC(C)C)C(=O)C2=O` ?
Response: 1.41

Prompt: And what about the compound `O=C(CS(=O)(=O)c1cn(Cc2ccc(Cl)cc2)c2ccccc12)N1CCOCC1` ?
Response: -16.2

Prompt: And what about the compound `Cc1ccc2nc(-c3ccc(SCC(=O)Nc4cc(C)on4)nc3)[nH]c2c1` ?
Response: -9.14

Prompt: And what about the compound `CCOC(=O)NC(C(F)(F)F)(C(F)(F)F)P(=O)(c1ccccc1)c1ccccc1` ?
Response: 22.6
